- Tested on: HUI77 binding to denatured collagen IV
- Procedure Summary: Competition ELISA: synthetic peptides blocking HUI77 binding to heat denatured collagen IV
- Design: species or system human
- Setup Conditions: peptide inhibitor concentration 100 μM; average of two studies
Square brackets hold non-standard residues; d marks the D form. Ends that are not written are not given here. Hyp = O=C(O)[C@@H]1C[C@@H](O)CN1
Readout: % INHIBITION OF BINDING OF HUI77 TO DENATURED COLLAGEN IV (%)

Substance	Quantitative Result
LPGLPG (L[Hyp]GL[Hyp]G) [SEQ ID NO: 25]	9.5
F-Hyp-G-P-Hyp-G-P-D-G-L-P-G-S-M-G-P-Hyp-G (F[Hyp]GP[Hyp]GPDGLPGSMGP[Hyp]G) [SEQ ID NO: 36]	9
LPGFPGC [SEQ ID NO: 37, reference compound]	7.5
LPGSPG (L[Hyp]GS[Hyp]G) [SEQ ID NO: 26]	10.5
